System: HEK-293T
Assay: Multiplex assay against HEK293T
Format: toxicity, cell-based
Conditions: human, 24 h, 1 µM, compound concentration 1 uM, replicate 1
assay-metric: Population Tubulin-Different-Phenotype (%)

1. O=C(NCCO)c1cccc(-c2cc(Nc3ccc(OC(F)(F)F)cc3)ncn2)c1    15
2. CCNC1(C(N)=O)CCN(c2ncnc3c2nc(-c2ccccc2Cl)n3-c2ccc(Cl)cc2)CC1    44
3. CN(C)c1ccnc2sc3c(=O)n(N4CCCCCC4)cnc3c12    24

* * *

# maps each entry to its Population Mitotic Cells (%)
Tested on: HEK-293T
Assay: Multiplex assay against HEK293T
Type: toxicity, cell-based
Conditions: human, 24 h, 10 µM, compound concentration 10 uM, replicate 2
assay-metric: Population Mitotic Cells (%)

1. COc1ccc2c(c1)C(C(=O)N(Cc1ccc(N(C)C)cc1)c1ccc(C(C)C)cc1)CCC2.Cl (stereo unspecified)    55
2. COc1ccccc1N1CCN(CCCCNC(=O)c2ccc3ccccc3c2)CC1.Cl    39
3. Cc1ccccc1C(=O)Nc1ccc(C(=O)N2CCCC(N(C)C)c3ccccc32)cc1.Cl (stereo unspecified)    55
4. C[C@H](NC(=O)c1c(C(F)F)nn(C)c1Oc1cccc(C(F)(F)F)c1)c1ccc(C(=O)O)cc1    44
5. COc1cc(NC(=O)CCN2CCC(OC(=O)Nc3ccccc3-c3ccccc3)CC2)c(Cl)cc1CNC[C@H](O)c1ccc(O)c2[nH]c(=O)ccc12    43
6. CC[C@H]1OC(=O)[C@H](C)[C@@H](O[C@H]2C[C@@](C)(OC)[C@@H](O)[C@H](C)O2)[C@H](C)[C@@H](O[C@@H]2O[C@H](C)C[C@H](N(C)C)[C@H]2O)[C@@]2(C)CC(C)=C(O2)[C@H](C)[C@@H](O)[C@]1(C)O    29
7. CSc1ccccc1N1CCN(CCCCCC(=O)NC2CCCc3ccccc32)CC1.Cl (stereo unspecified)    30
8. CCCn1c(=O)c2[nH]c(C3CCCC3)nc2n(CCC)c1=O    58
9. CC(C)(C)c1ccc(S(=O)(=O)Nc2ccc(Cl)cc2C(=O)c2cc[n+]([O-])cc2)cc1    71
10. N#Cc1c(N)nc(SCc2csc(-c3ccc(Cl)cc3)n2)c(C#N)c1-c1ccc(OCCO)cc1    26
11. O=C(O)c1cc2ccccc2c(Cc2c(O)c(C(=O)O)cc3ccccc23)c1O    58
12. CCNC1(C(N)=O)CCN(c2ncnc3c2nc(-c2ccccc2Cl)n3-c2ccc(Cl)cc2)CC1    35
13. Cc1ccc(/C(=C\CN2CCCC2)c2ccccn2)cc1    72
14. N[C@@]1(C(=O)O)CO[C@H]2[C@H](C(=O)O)[C@H]21    56
15. C[C@H]1[C@H]2CC[C@H]3[C@@H]4CC=C5C[C@@H](N(C)C)CC[C@]5(C)[C@H]4CC[C@]23CN1C    52
16. Cc1ccc(C(C)(O)c2nc3ccccc3s2)c(C)c1 (stereo unspecified)    63

* * *

Population Tubulin-Different-Phenotype (%) by entry:
System: Fibroblast
Experiment: Multiplex assay against human fibroblast
Assay type: toxicity, cell-based
Settings: 24 h, 10 µM, compound concentration 10 uM, replicate 2
assay-metric: Population Tubulin-Different-Phenotype (%)

1. COc1cc(C(=O)N(CCCc2ccccc2)Cc2ccc(CC(=O)O)cc2)cc(OC)c1C    41%
2. CC(=O)NCCc1c(Cc2ccccc2)[nH]c2ccccc12 [LUZINDOLE]    33%
3. O=C1COc2nccc(-c3ccccc3F)c2CN1Cc1cc(C(F)(F)F)cc(C(F)(F)F)c1    61%
4. C[C@H](NC(=O)c1c(C(F)F)nn(C)c1Oc1cccc(C(F)(F)F)c1)c1ccc(C(=O)O)cc1 [PALUPIPRANT]    51%
5. CNC[C@H](O)c1ccc(O)c(O)c1 [EPINEPHRINE]    51%
6. CCCN1CCC[C@@H]2Cc3n[nH]cc3C[C@H]21.Cl [QUINPIROLE HYDROCHLORIDE]    39%
7. CCNC1(C(N)=O)CCN(c2ncnc3c2nc(-c2ccccc2Cl)n3-c2ccc(Cl)cc2)CC1 [OTENABANT]    88%
8. CC1(COc2ccc3c(c2)ncn3-c2ccc3cccc(N4CCC(N)CC4)c3n2)COC1 [CRENOLANIB]    38%
9. CN1CCN(c2nc3cc(C(F)(F)F)ccc3n3cccc23)CC1.O=C(O)/C=C\C(=O)O.O=C(O)/C=C\C(=O)O    86%
10. COc1cc(NC(=O)CCN2CCC(OC(=O)Nc3ccccc3-c3ccccc3)CC2)c(Cl)cc1CNC[C@H](O)c1ccc(O)c2[nH]c(=O)ccc12 [BATEFENTEROL]    80%
11. O=C(O)Cc1ccccc1Nc1c(Cl)cccc1Cl [DICLOFENAC]    55%
12. Cc1ccc(F)cc1C(=O)Nc1ccc(C(=O)N2Cc3cccn3Cc3ccccc32)c(Cl)c1 [LIXIVAPTAN]    82%
13. CSc1ccccc1N1CCN(CCCCCC(=O)NC2CCCc3ccccc32)CC1.Cl (configuration not stated)    90%
14. CSCC[C@H](NC=O)C(=O)N[C@@H](CC(C)C)C(=O)N[C@@H](Cc1ccccc1)C(=O)O    47%
15. Cc1nc2ccc(Oc3ccc(F)cc3)cc2c(=O)n1C[C@H]1CCCN(C(C)C)C1.Cl    87%
16. Cc1ccccc1C(=O)Nc1ccc(C(=O)N2CCCC(N(C)C)c3ccccc32)cc1.Cl (configuration not stated)    72%
17. CN(C)c1ccnc2sc3c(=O)n(N4CCCCCC4)cnc3c12    85%
18. O=C(NCCO)c1cccc(-c2cc(Nc3ccc(OC(F)(F)F)cc3)ncn2)c1    84%
19. CN1CCN2c3ncccc3Cc3ccccc3C2C1 (configuration not stated) [MIRTAZAPINE]    68%
20. COc1ccc2c(c1)C(C(=O)N(Cc1ccc(N(C)C)cc1)c1ccc(C(C)C)cc1)CCC2.Cl (configuration not stated)    85%
21. CC(C)(C)c1ccc(S(=O)(=O)Nc2ccc(Cl)cc2C(=O)c2cc[n+]([O-])cc2)cc1 [VERCIRNON]    82%
22. CCCn1c(=O)c2[nH]c(C3CCCC3)nc2n(CCC)c1=O    63%
23. COc1c(C)cc(NC(=O)c2nn(Cc3ccc(F)cc3)c3c2CN(C(=O)c2ccc[nH]2)C[C@]3(C)C(N)=O)cc1C    82%
24. Cc1ccc(C(C)(O)c2nc3ccccc3s2)c(C)c1 (configuration not stated)    61%
25. Cl.Clc1ccc2nsnc2c1NC1=NCCN1 [TIZANIDINE HYDROCHLORIDE]    34%
26. CCCC(CCC)C(=O)O [VALPROIC ACID]    41%
27. C[C@H]1[C@H]2CC[C@H]3[C@@H]4CC=C5C[C@@H](N(C)C)CC[C@]5(C)[C@H]4CC[C@]23CN1C [CONESSINE]    60%
28. C[C@@H]1C[C@H]2[C@@H]3CCC4=CC(=O)C=C[C@]4(C)[C@@]3(F)[C@@H](O)C[C@]2(C)[C@@]1(O)C(=O)CO [DEXAMETHASONE]    45%
29. O=S(=O)(c1ccccc1)c1cnc2c(N3CCNCC3)cccc2c1 [INTEPIRDINE]    67%
30. Oc1c(CN2CCN(c3ccccn3)CC2)cc(Cl)c2cccnc12    68%
31. Cc1ccc(/C(=C\CN2CCCC2)c2ccccn2)cc1 [TRIPROLIDINE]    62%
32. CN(C)CCCc1cc(C(=O)Nc2ccc(-c3ccncc3)cc2)ccc1O.Cl.Cl    42%

* * *

Documented Population Mitochondria Different-Phenotype (%) across a set of molecules
Test system: HEK-293T
Assay: Multiplex assay against HEK293T
Type: toxicity, cell-based
Settings: human, 48 h, 1 µM, compound concentration 1 uM, replicate 2
assay-metric: Population Mitochondria Different-Phenotype (%)

1) CCOc1c2c(c(OCC)c3ncccc13)CN(c1ccc(CS(=O)(=O)NC(=O)Cc3ccccc3OC)cc1C)C2=O    14
2) CCCN1CCC[C@@H]2Cc3n[nH]cc3C[C@H]21.Cl [QUINPIROLE HYDROCHLORIDE]    19
3) CC(=O)NCCc1c(Cc2ccccc2)[nH]c2ccccc12    23
4) Cc1nc2ccc(Oc3ccc(F)cc3)cc2c(=O)n1C[C@H]1CCCN(C(C)C)C1.Cl    36
5) CNC[C@H](O)c1ccc(O)c(O)c1 [EPINEPHRINE]    24
6) O=S(=O)(c1ccccc1)c1cnc2c(N3CCNCC3)cccc2c1 [INTEPIRDINE]    26
7) CN1CCN2c3ncccc3Cc3ccccc3C2C1 (stereo unspecified)    21
8) CCNC1(C(N)=O)CCN(c2ncnc3c2nc(-c2ccccc2Cl)n3-c2ccc(Cl)cc2)CC1    30
9) C[C@H](NC(=O)c1c(C(F)F)nn(C)c1Oc1cccc(C(F)(F)F)c1)c1ccc(C(=O)O)cc1    18
10) c1cc(OCCCN2CCCCC2)ccc1CN1CCCCC1    17
11) COc1c(C)cc(NC(=O)c2nn(Cc3ccc(F)cc3)c3c2CN(C(=O)c2ccc[nH]2)C[C@]3(C)C(N)=O)cc1C    28
12) COc1ccccc1N1CCN(CCCCNC(=O)c2ccc3ccccc3c2)CC1.Cl    37
13) Cc1ccccc1C(=O)Nc1ccc(C(=O)N2CCCC(N(C)C)c3ccccc32)cc1.Cl (stereo unspecified)    30
14) Cc1ccc(C(C)(O)c2nc3ccccc3s2)c(C)c1 (stereo unspecified)    22
15) COc1cc(C(=O)N(CCCc2ccccc2)Cc2ccc(CC(=O)O)cc2)cc(OC)c1C    17
16) CCCC(CCC)C(=O)O    17
17) CCCn1c(=O)c2[nH]c(C3CCCC3)nc2n(CCC)c1=O    22
18) COc1ccc2c(c1)C(C(=O)N(Cc1ccc(N(C)C)cc1)c1ccc(C(C)C)cc1)CCC2.Cl (stereo unspecified)    17
19) CSCC[C@H](NC=O)C(=O)N[C@@H](CC(C)C)C(=O)N[C@@H](Cc1ccccc1)C(=O)O    17
20) O=C(NCCO)c1cccc(-c2cc(Nc3ccc(OC(F)(F)F)cc3)ncn2)c1    23
21) Cc1ccc(F)cc1C(=O)Nc1ccc(C(=O)N2Cc3cccn3Cc3ccccc32)c(Cl)c1    24
22) O=C1COc2nccc(-c3ccccc3F)c2CN1Cc1cc(C(F)(F)F)cc(C(F)(F)F)c1    23
23) CN(C)CCCc1cc(C(=O)Nc2ccc(-c3ccncc3)cc2)ccc1O.Cl.Cl    24
24) C[C@H]1[C@H]2CC[C@H]3[C@@H]4CC=C5C[C@@H](N(C)C)CC[C@]5(C)[C@H]4CC[C@]23CN1C    20
25) CN(C)c1ccnc2sc3c(=O)n(N4CCCCCC4)cnc3c12    31
26) O=C(O)Cc1ccccc1Nc1c(Cl)cccc1Cl    16
27) N#Cc1c(N)nc(SCc2csc(-c3ccc(Cl)cc3)n2)c(C#N)c1-c1ccc(OCCO)cc1    23
28) CC[C@H]1OC(=O)[C@H](C)[C@@H](O[C@H]2C[C@@](C)(OC)[C@@H](O)[C@H](C)O2)[C@H](C)[C@@H](O[C@@H]2O[C@H](C)C[C@H](N(C)C)[C@H]2O)[C@@]2(C)CC(C)=C(O2)[C@H](C)[C@@H](O)[C@]1(C)O    34
29) CC(C)(C)c1ccc(S(=O)(=O)Nc2ccc(Cl)cc2C(=O)c2cc[n+]([O-])cc2)cc1    14
30) N[C@@]1(C(=O)O)CO[C@H]2[C@H](C(=O)O)[C@H]21    22
31) O=C(NCC(=O)N1CC[C@H](N[C@H]2CC[C@@](O)(c3ccc(-c4ncccn4)cn3)CC2)C1)c1cccc(C(F)(F)F)c1    16
32) CC1(COc2ccc3c(c2)ncn3-c2ccc3cccc(N4CCC(N)CC4)c3n2)COC1    21
33) Cc1ccc(/C(=C\CN2CCCC2)c2ccccn2)cc1    13
34) Cc1ccc(-c2ccc(F)cc2COc2ccc(CCC(=O)O)cc2)cc1    18
35) CSc1ccccc1N1CCN(CCCCCC(=O)NC2CCCc3ccccc32)CC1.Cl (stereo unspecified)    59
36) Cl.Clc1ccc2nsnc2c1NC1=NCCN1 [TIZANIDINE HYDROCHLORIDE]    19

Entry source: ChEMBL document CHEMBL5058577
